Origin of measurements: patent US20090221624A1

# CC50 values compiled below
Measurement Description: in vitro
Condition Details: DNG CC50

Before answering, review these 2 worked examples.
- Chemical Structure: "COC(=O)c1ccc(Nc2cc(C)nc3ccc(Cl)cc23)cc1"
  CC50: "≥ 75 µM"
- Chemical Structure: "COc1ccc(Nc2cc(C)nc3ccccc23)cc1"
  CC50: "≥ 75 µM"

Reported CC50, compound CCOC(=O)c1cnc2ccc(C)cc2c1Nc1ccc(N2CCOCC2)cc1 : ____
≥ 75 µM

====

Tested on: DNG (D2-hRuPac cells)
Measurement Description: DNG antiviral activity, D2-hRuPac cells, Renilla luciferase
Assay type: cell-based, Dengue fever virus
Condition Details: Dengue virus, secondary screening
Experimental Readout: EC50

- Chemical Structure: "CC(=O)c1cccc(Nc2cc(C)nc3ccccc23)c1"
  Recorded Value: "≥ 75 µM"

Reported EC50, molecule CCOC(=O)c1cnc2ccc(C)cc2c1Nc1ccc(N2CCOCC2)cc1 : ____
≥ 75 µM

Reported EC50, molecule Cc1cc(Nc2cccc(Cl)c2C)c2cccc(C)c2n1 : ____
≥ 75 µM

====

Measurement Description: in vitro
Condition Details: HCV CC50
Experimental Readout: CC50 (µM)
Write it as a number; the unit µM goes unstated.

- Compound: "CCOC(=O)c1cnc2c(OC)cccc2c1NC(C)c1ccccc1 (centres unmarked) [Compound 71]"
  Experimental Readout: "CC50"
  Recorded Value: 39.6
- Compound: "COc1ccc(Nc2cc(C)nc3c2ccc2ccccc23)cc1 [Compound 7]"
  Experimental Readout: "CC50"
  Recorded Value: 14
- Compound: "c1ccc2cc(Nc3c4ccccc4nc4ccccc34)ccc2c1 [Compound 1]"
  Experimental Readout: "CC50"
  Recorded Value: 3.83
- Compound: "Cc1ccc2nc(C)cc(N3CCC(C)CC3)c2c1 [Compound 15]"
  Experimental Readout: "CC50"
  Recorded Value: 35.7
- Compound: "Cc1cc(Nc2cccc(C(F)(F)F)c2)c2cc(Cl)ccc2n1 [Compound 40]"
  Experimental Readout: "CC50"
  Recorded Value: 5.53
- Compound: "COC(=O)c1ccc(Nc2c3c(nc4ccccc24)CCC3)cc1 [Compound 8]"
  Experimental Readout: "CC50"
  Recorded Value: 71.6

Reported CC50, compound COc1cccc2c(Nc3cccc([N+](=O)[O-])c3)cc(C)nc12 [Compound 25] : ____
12.7

Reported CC50, compound CCOC(=O)c1ccc(Nc2cc(C)nc3c2ccc2ccccc23)cc1 [Compound 4] : ____
32.5

Reported CC50, compound Cc1ccc2nc3c(c(Nc4cccc(C(F)(F)F)c4)c2c1)CCC3 [Compound 26] : ____
8.35

Reported CC50, compound Cc1cc(C)c2nc(C)cc(Nc3ccc(OCc4ccccc4)cc3)c2c1 [Compound 44] : ____
5.05

Reported CC50, compound Cc1cc(C)c2nc(C)cc(Nc3ccc(O)cc3)c2c1 [Compound 49] : ____
16.3

Reported CC50, compound Cc1cc(C)c2nc(C)cc(NCc3ccco3)c2c1 [Compound 54] : ____
23.9

====

Measurement Description: in vitro
Condition Details: DNG CC50
# CC50 values compiled below

- Chemical Structure: "Cc1cc(Nc2cccc(Cl)c2C)c2cccc(C)c2n1"
  Recorded Value: "≥ 75 µM"
- Chemical Structure: "CCOC(=O)c1cnc2c(C(F)(F)F)cccc2c1Nc1ccc(S(=O)(=O)Nc2nc(C)cc(C)n2)cc1"
  Recorded Value: "≥ 75 µM"

Here's the next entry for you.
Reported CC50, molecule COC(=O)c1ccc(Nc2c3c(nc4ccccc24)CCC3)cc1 : ____
≥ 75 µM

====

Test system: WNV (WN-hRuPac cells)
Measurement Description: WNV antiviral activity, WN-hRuPac cells, Renilla luciferase
Assay type: cell-based, West Nile virus
Condition Details: West Nile virus; Secondary Data; WNV; read-out: WNV EC50
Experimental Readout: EC50 (µM)
Write it as a number; the unit µM goes unstated.

- Molecule: "Cc1ccc2nc3c(c(Nc4ccc(O)cc4)c2c1)CCC3 [Compound 16]"
  Target Under Test: "WNV (WN-hRuPac cells)"
  EC50, µM: 13.1
- Molecule: "CCOC(=O)c1cnc2c(Cl)cc(Cl)cc2c1NCc1ccco1 [Compound 52]"
  Target Under Test: "WNV (WN-hRuPac cells)"
  EC50, µM: 10.8
- Molecule: "CCOC(=O)c1cnc2c(OC)cccc2c1NC(C)c1ccccc1 (stereo not drawn) [Compound 71]"
  Target Under Test: "WNV (WN-hRuPac cells)"
  EC50, µM: 13.9
- Molecule: "Cc1cccc(Nc2c3c(nc4ccccc24)CCC3)c1 [Compound 11]"
  Target Under Test: "WNV (WN-hRuPac cells)"
  EC50, µM: 9.79
- Molecule: "CCOC(=O)c1cnc2ccc(F)cc2c1Nc1ccc(S(=O)(=O)Nc2nc(C)cc(C)n2)cc1 [Compound 74]"
  Target Under Test: "WNV (WN-hRuPac cells)"
  EC50, µM: 9.72

# query: EC50 | item c1cncc(CNc2c3ccccc3nc3ccccc23)c1 [Compound 5] | system: WNV (WN-hRuPac cells)
7.15

# query: EC50 | item Cc1ccc2nc3c(c(Nc4cccc(C(F)(F)F)c4)c2c1)CCC3 [Compound 26] | system: WNV (WN-hRuPac cells)
3.71

# query: EC50 | item COC(=O)c1ccc2nc(C)cc(Nc3cccc(O)c3)c2c1 [Compound 73] | system: WNV (WN-hRuPac cells)
25.8

====

Measurement Description: in vitro
Condition Details: DNG CC50
Assign classes using reported CC50 values and the ranges lower segment: < 30 µM; middle segment: ≥ 30 µM and < 50 µM; upper segment: ≥ 50 µM, please.

Example cases with answers are listed next.
- Molecule: "CCOC(=O)c1cnc2ccc(F)cc2c1Nc1ccc(S(=O)(=O)Nc2nc(C)cc(C)n2)cc1 [Compound 74]"
  Assigned Class: "upper segment"
- Molecule: "CC(=O)c1cccc(Nc2cc(C)nc3ccccc23)c1 [Compound 17]"
  Assigned Class: "upper segment"
- Molecule: "CCOC(=O)c1cnc2c(Cl)cccc2c1NCc1ccco1 [Compound 55]"
  Assigned Class: "middle segment"
- Molecule: "Cc1cc(Nc2ccc(C)c(Cl)c2)c2cccc(C)c2n1 [Compound 50]"
  Assigned Class: "upper segment"
- Molecule: "c1ccc2cc(Nc3c4ccccc4nc4ccccc34)ccc2c1 [Compound 1]"
  Assigned Class: "middle segment"

Tag the class for CCCOC(=O)c1ccc(Nc2cc(C)nc3ccc(C(=O)OCC)cc23)cc1 [Compound 63]
upper segment

Tag the class for CCc1ccccc1Nc1c2ccccc2nc2ccccc12 [Compound 2]
middle segment

Tag the class for CCOC(=O)c1cnc2ccc(C)cc2c1NCc1ccco1 [Compound 39]
lower segment

Tag the class for COc1cccc2c(Nc3cccc([N+](=O)[O-])c3)cc(C)nc12 [Compound 25]
lower segment

Tag the class for CCOc1ccc2nc(C)cc(Nc3ccc(OCc4ccccc4Cl)cc3)c2c1 [Compound 42]
lower segment

====

Test system: DNG (D2-hRuPac cells)
Measurement Description: DNG antiviral activity, D2-hRuPac cells, Renilla luciferase
Type: cell-based, Dengue fever virus
Condition Details: Dengue virus, secondary screening
Experimental Readout: EC50 (µM)
Write it as a number; the unit µM goes unstated.

Before answering, review these 3 worked examples.
- Chemical Structure: "CCOC(=O)c1cnc2c(Cl)cccc2c1NCc1ccco1"
  Reading Unit: "µM"
  EC50: 8.53
- Chemical Structure: "CCOC(=O)c1cnc2c(C)cccc2c1NCc1ccco1"
  Reading Unit: "µM"
  EC50: 10.2
- Chemical Structure: "COc1ccccc1Nc1cc(C)nc2c(C)c(C)cc(N)c12"
  Reading Unit: "µM"
  EC50: 8.26

Here's the next entry for you.
Reported EC50, compound Cc1cc(C)c2nc(C)cc(Nc3ccc(O)cc3)c2c1 : ____
13.2

====

Measurement Description: in vitro
Condition Details: EBOV CC50
# CC50 values compiled below
Write it as a number; the unit µM goes unstated.

Reported CC50, molecule Cc1ccc2nc3c(c(Nc4cccc(C(F)(F)F)c4)c2c1)CCC3 : ____
53.1

Reported CC50, molecule CCc1ccccc1Nc1cc(C)nc2c(OC)cccc12 : ____
57.9

Reported CC50, molecule CCOC(=O)c1cnc2c(OC)cccc2c1NCc1ccccc1 : ____
43.5

====

Measurement Description: in vitro
Condition Details: SINV CC50
Mark yes only for CC50 values smaller than 50 µM; exact matches and larger values are no.

Example cases with answers are listed next.
- Chemical Structure: "CCOC(=O)c1cnc2c(C(F)(F)F)cccc2c1Nc1ccc(S(=O)(=O)Nc2nc(C)cc(C)n2)cc1"
  Assigned Class: "no"
- Chemical Structure: "CCOC(=O)c1cnc2ccc(C)cc2c1Nc1ccc(N2CCOCC2)cc1"
  Assigned Class: "no"
- Chemical Structure: "CCOC(=O)c1cnc2c(OC)cccc2c1NCCCO"
  Assigned Class: "yes"
- Chemical Structure: "CC(=O)c1cccc(Nc2cc(C)nc3ccccc23)c1"
  Assigned Class: "no"
- Chemical Structure: "CCOC(=O)c1cnc2c(OC)cccc2c1NCc1ccccc1"
  Assigned Class: "yes"
- Chemical Structure: "Cc1cc(Nc2cccc(C(F)(F)F)c2)c2cc(Cl)ccc2n1"
  Assigned Class: "no"
- Chemical Structure: "COc1cccc2c(Nc3ccc4c(c3)OCCO4)cc(C)nc12"
  Assigned Class: "no"
- Chemical Structure: "CCOc1ccc2nc(C)cc(Nc3cc(Cl)ccc3OC)c2c1"
  Assigned Class: "yes"

Hello, is CC50 of the following compound strictly smaller than 50 µM? CCOC(=O)c1cnc2c(Cl)cccc2c1NCc1ccco1
yes

Hello, is CC50 of the following compound strictly smaller than 50 µM? CCOc1ccc2nc(C)cc(Nc3ccc(Br)cc3)c2c1
yes

Hello, is CC50 of the following compound strictly smaller than 50 µM? CCOC(=O)c1cnc2c(Cl)c(Cl)ccc2c1NCc1ccco1
yes

Hello, is CC50 of the following compound strictly smaller than 50 µM? CCOC(=O)c1cnc2ccc(F)cc2c1Nc1ccc(S(=O)(=O)Nc2nc(C)cc(C)n2)cc1
no

Hello, is CC50 of the following compound strictly smaller than 50 µM? Cc1ccc2nc(C)cc(NCc3ccccc3)c2c1
no

Hello, is CC50 of the following compound strictly smaller than 50 µM? COc1ccc2nc(C)cc(Nc3ccc(I)cc3)c2c1
yes

Hello, is CC50 of the following compound strictly smaller than 50 µM? Cc1ccc(Nc2cc(C)nc3c2ccc2ccccc23)cc1
no

Hello, is CC50 of the following compound strictly smaller than 50 µM? CCOc1ccc2nc(C)cc(Nc3ccc(Cl)cc3)c2c1
yes

Hello, is CC50 of the following compound strictly smaller than 50 µM? COc1ccc(Nc2cc(C)nc3ccccc23)cc1
no

Hello, is CC50 of the following compound strictly smaller than 50 µM? Cc1ccc2nc(C)cc(N3CCC(C)CC3)c2c1
no

Hello, is CC50 of the following compound strictly smaller than 50 µM? C=CCNc1c2c(nc3ccccc13)CCC2
no
